# key: entry, value: IC50
target under test: FLT3 (Homo sapiens)
Field format: number, assumed nM, no unit text.

c1ccc(-c2cnc3c(-c4ccncc4)coc3c2)cc1 ... 183
FC(F)(F)Oc1cccc(-c2coc3cc(-c4ccc(N5CCNCC5)cc4)cnc23)c1 ... 649
CN1CCN(c2ccc(-c3cnc4c(-c5cc(F)cc(C(N)=O)c5)coc4c3)cc2)CC1 ... 56

Next item in the queue.
// query Recorded IC50 for COC(=O)c1cccc(-c2coc3cc(-c4ccc(N5CCN(C)CC5)cc4)cnc23)c1 with FLT3 (Homo sapiens), please?
// result 66

---

target under test: DDR1 (Homo sapiens)
Sequence (Q08345 19-913): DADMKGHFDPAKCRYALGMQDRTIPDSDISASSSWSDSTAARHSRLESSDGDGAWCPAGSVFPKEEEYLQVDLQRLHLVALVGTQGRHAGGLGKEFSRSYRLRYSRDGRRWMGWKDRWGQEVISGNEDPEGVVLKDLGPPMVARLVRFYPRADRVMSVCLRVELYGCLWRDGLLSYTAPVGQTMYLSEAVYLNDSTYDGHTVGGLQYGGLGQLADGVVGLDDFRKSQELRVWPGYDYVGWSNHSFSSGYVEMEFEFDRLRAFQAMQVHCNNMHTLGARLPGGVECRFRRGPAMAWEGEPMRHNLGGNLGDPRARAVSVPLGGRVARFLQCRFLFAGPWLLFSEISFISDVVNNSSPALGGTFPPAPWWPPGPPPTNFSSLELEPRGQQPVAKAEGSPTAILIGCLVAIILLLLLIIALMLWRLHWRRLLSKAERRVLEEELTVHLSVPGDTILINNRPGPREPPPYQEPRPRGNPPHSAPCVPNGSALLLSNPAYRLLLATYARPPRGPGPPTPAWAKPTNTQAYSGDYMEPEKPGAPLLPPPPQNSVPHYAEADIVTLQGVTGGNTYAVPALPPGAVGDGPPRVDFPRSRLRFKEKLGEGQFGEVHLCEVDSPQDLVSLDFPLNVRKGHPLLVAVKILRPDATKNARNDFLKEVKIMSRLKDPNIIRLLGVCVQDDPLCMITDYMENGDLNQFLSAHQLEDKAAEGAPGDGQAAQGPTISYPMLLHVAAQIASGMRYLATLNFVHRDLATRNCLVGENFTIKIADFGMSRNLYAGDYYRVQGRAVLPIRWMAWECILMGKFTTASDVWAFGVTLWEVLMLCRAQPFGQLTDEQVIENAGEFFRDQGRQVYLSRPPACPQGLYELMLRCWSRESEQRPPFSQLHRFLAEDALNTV
# key: entry, value: IC50
Field format: number, assumed nM, no unit text.

Solved cases (3 shown):
c1cncc(-c2coc3cc(-c4ccc(N5CCNCC5)cc4)cnc23)c1 [Preparative Example 11] ... 294
CC(=O)NCc1cccc(-c2coc3cc(-c4ccc(N5CCN(C)CC5)cc4)cnc23)c1 [Preparative Example 137] ... 206
Cc1ccc(-c2coc3cc(-c4ccc(N5CCNCC5)cc4)cnc23)cc1 [Preparative Example 43] ... 126

// query Recorded IC50 for C(#Cc1coc2cc(-c3ccc(N4CCNCC4)cc3)cnc12)c1ccccc1 [Preparative Example 191] with DDR1 (Homo sapiens), please?
// result 329

// query Recorded IC50 for c1ccc(-c2ccccc2-c2coc3cc(-c4ccc(N5CCNCC5)cc4)cnc23)cc1 [Preparative Example 161] with DDR1 (Homo sapiens), please?
// result 209

// query Recorded IC50 for CC(=O)c1cc(-c2coc3cc(-c4ccc(N5CCN(C)CC5)cc4)cnc23)ccn1 [Preparative Example 156] with DDR1 (Homo sapiens), please?
// result 734

// query Recorded IC50 for COCc1cccc(-c2coc3cc(-c4ccc(N5CCNCC5)cc4)cnc23)c1 [Preparative Example 70] with DDR1 (Homo sapiens), please?
// result 196

---

target under test: KHS/MAP4K5 (Homo sapiens, UniProt Q9Y4K4)
Sequence (Q9Y4K4 whole entry): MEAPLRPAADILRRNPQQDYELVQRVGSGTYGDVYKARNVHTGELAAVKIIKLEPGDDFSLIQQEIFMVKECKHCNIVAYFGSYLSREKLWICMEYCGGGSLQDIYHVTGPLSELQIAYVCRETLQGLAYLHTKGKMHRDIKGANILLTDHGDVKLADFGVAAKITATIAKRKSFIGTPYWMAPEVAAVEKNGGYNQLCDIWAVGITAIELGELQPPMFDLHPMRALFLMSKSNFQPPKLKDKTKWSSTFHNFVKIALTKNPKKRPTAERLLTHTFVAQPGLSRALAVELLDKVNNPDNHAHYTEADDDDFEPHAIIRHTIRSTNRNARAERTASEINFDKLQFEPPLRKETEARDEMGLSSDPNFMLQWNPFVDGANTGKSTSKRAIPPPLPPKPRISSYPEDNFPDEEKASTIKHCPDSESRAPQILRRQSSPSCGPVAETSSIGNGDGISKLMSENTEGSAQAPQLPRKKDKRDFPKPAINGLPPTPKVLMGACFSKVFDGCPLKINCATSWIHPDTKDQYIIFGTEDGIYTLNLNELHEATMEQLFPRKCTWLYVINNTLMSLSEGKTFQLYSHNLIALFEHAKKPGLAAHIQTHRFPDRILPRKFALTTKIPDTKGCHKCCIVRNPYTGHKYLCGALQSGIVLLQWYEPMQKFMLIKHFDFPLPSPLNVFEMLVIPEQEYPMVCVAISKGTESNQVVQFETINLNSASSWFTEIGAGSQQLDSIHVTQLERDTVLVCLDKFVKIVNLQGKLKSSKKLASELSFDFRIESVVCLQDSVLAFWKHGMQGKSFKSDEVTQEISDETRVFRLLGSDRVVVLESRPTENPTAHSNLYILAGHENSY
method description: HotSpot radiometric kinase assay (Reaction Biology), KHS/MAP4K5
study conditions: 1.5 nM kinase, substrate MBP 20 μM, 33P-ATP, 120 minutes at room temperature
# key: entry, value: pIC50
Recall that pIC50 is obtained by taking minus log10 of the concentration measured in molar.

CC(=O)OCc1cccc(-c2coc3cc(-c4ccc(N5CCN(C)CC5)cc4)cnc23)c1 ... 6.19
CC(c1ccccc1)c1coc2cc(-c3ccc(N4CCN(C)CC4)cc3)cnc12 (racemic) ... 6.09
CN1CCN(c2ccc(-c3cnc4c(-c5cc(F)cc(C(N)=O)c5)coc4c3)cc2)CC1 ... 6.12
c1cc(SC2CCC2)cc(-c2coc3cc(-c4ccc(N5CCNCC5)cc4)cnc23)c1 ... 6.13

// query What pIC50 value was documented for this molecule, CN1CCN(c2ccc(-c3cnc4c(-c5ccc(NC(=O)N(C)C)cc5)coc4c3)cc2)CC1 ?
// result 6.74

// query What pIC50 value was documented for this molecule, COc1cccc(-c2coc3cc(-c4ccc(N5CCNCC5)cc4)cnc23)c1 ?
// result 6.04

// query What pIC50 value was documented for this molecule, CN(C)C(=O)c1cccc(-c2coc3cc(-c4ccc(N5CCNCC5)cc4)cnc23)c1 ?
// result 6.27

---

# key: entry, value: pIC50
target under test: FLT3 (Homo sapiens)
Sequence (P36888 27-993): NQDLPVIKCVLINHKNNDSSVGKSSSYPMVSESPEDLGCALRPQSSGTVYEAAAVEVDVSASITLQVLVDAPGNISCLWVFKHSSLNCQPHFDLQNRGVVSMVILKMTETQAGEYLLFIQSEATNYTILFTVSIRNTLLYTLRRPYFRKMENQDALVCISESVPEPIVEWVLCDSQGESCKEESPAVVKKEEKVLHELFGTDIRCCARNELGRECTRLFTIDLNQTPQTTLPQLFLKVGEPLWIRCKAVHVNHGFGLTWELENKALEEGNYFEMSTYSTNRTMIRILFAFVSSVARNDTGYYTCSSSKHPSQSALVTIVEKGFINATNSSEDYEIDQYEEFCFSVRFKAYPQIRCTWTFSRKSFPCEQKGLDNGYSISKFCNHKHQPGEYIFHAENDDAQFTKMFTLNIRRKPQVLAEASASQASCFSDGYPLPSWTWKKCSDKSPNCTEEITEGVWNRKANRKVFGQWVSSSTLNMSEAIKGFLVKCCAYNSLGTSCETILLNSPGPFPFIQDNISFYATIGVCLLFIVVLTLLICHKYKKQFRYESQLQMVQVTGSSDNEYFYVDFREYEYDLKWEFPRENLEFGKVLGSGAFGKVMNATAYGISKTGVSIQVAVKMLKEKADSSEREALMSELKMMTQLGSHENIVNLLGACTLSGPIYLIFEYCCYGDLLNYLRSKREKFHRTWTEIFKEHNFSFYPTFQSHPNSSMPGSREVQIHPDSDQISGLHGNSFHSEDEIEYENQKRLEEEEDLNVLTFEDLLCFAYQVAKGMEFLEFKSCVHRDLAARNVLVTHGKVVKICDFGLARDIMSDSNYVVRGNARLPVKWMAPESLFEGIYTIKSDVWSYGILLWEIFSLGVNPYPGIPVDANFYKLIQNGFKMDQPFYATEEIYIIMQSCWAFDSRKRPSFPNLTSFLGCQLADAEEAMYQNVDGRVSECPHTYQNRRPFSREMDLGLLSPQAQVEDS
Recall that pIC50 is obtained by taking minus log10 of the concentration measured in molar.

c1cc(-c2coc3cc(-c4ccc(N5CCOCC5)nc4)cnc23)ccn1 [Preparative Example 23] ... 7.00

// query What pIC50 value was documented for this compound, c1ccc(Nc2ccc3occ(-c4ccccc4)c3n2)cc1 [compound 8E from WO 2015/165428, reference compound] ?
// result 5.57

Each recorded value in this set is attributed to patent US20250352550A1.
